The reported numbers originate from patent US20250195521A1.

# TARGET_OF_ASSAY: KRAS G12D (Homo sapiens (Human), UniProt P01116+P62937, G12D)
# Sequence (P01116 other isoform, or with tags, fused parts or gaps G12D): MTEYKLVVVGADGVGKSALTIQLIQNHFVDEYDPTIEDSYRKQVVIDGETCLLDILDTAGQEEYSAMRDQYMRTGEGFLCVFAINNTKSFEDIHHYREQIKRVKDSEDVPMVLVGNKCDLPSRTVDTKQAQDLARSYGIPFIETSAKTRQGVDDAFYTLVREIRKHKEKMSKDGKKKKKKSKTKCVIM
# Sequence (P62937 whole entry): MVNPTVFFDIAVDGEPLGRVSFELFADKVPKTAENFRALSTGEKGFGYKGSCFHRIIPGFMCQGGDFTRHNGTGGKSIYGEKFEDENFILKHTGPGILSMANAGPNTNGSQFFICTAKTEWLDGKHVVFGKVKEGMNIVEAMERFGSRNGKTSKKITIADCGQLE
# ASSAY_EXPLANATION: Ras-Raf disruption/FRET/MOA assay (BRAF RBD, Cyclophilin A)
# Format: biochemical
# PROTOCOL_CONDITIONS: read-out: KRAS G12D FRET IC50
pIC50: −log10 of the molar value.
METRIC: pIC50

Below: 4 molecules and their reported pIC50.
| MOLECULE | ENDPOINT_VALUE |
| --- | --- |
| CCn1c(-c2cnccc2COC)c2c3cc(ccc31)-c1cc(O)cc(c1)C[C@H](NC(=O)[C@H](C(C)C)N(C)C(=O)O[C@@H]1CCOC1)C(=O)N1CCC[C@H](N1)C(=O)OCC(C)(C)C2 | 5.00 to 6.00 |
| CCn1c(-c2cccnc2[C@H](C)OC)c2c3cc(ccc31)-c1cc(O)cc(c1)C[C@H](NC(=O)C1CCC3C1C3(F)F)C(=O)N1CCC[C@H](N1)C(=O)OCC(C)(C)C2 (some centres unmarked) | < 5.00 |
| CCn1c(-c2cccnc2[C@H](C)OC)c2c3cc(ccc31)-c1csc(n1)C[C@H](NC(=O)[C@H](C(C)C)N(C)C(=O)N1CCCCC1)C(=O)N1CCC[C@H](N1)C(=O)OCC(C)(C)C2 | 6.00 to 7.00 |
| CCn1c(-c2cccnc2[C@H](C)OC)c2c3cc(ccc31)-c1cc(O)cc(c1)C[C@H](NC(=O)[C@H](C(C)C)N(C)C(=O)C1CNCCO1)C(=O)N1CCC[C@H](N1)C(=O)OCC(C)(C)C2 (some centres unmarked) | 6.00 to 7.00 |

Okay, next one:
Specify measured pIC50 for CCn1c(-c2cccnc2[C@H](C)OC)c2c3cc(ccc31)-c1cc(O)cc(c1)C[C@H](NC(=O)C(=C(C)C)N(C)C(C)=O)C(=O)N1CCC[C@H](N1)C(=O)OCC(C)(C)C2 .
< 5.00

----------
Measured pIC50 accompanies every entry in the list below.
# System: NCI-H358 cells (K-Ras G12C)
# ASSAY_EXPLANATION: CellTiter-Glo cell viability, NCI-H358
# Type: cell-based, human
# PROTOCOL_CONDITIONS: Homo sapiens, NCI-H358, 120 h, K-Ras G12C, 5-day treatment; read-out: H358 Cell Viability IC50
pIC50: −log10 of the molar value.

Below: 5 compounds and their reported pIC50.
| COMPOUND | pIC50 |
| --- | --- |
| CCn1c(-c2cccnc2[C@H](C)OC)c2c3cc(ccc31)-c1csc(n1)C[C@H](NC(=O)[C@H](C(C)C)N(C)C(=O)N1CCO[C@@H](c3ccccc3)C1)C(=O)N1CCC[C@H](N1)C(=O)OCC(C)(C)C2 [Compound A600] | 6.00 to 7.00 |
| CCn1c(-c2cccnc2[C@H](C)OC)c2c3cc(ccc31)-c1csc(n1)C[C@H](NC(=O)[C@H](C(C)C)N(C)C(=O)N1CC(O)(CN(C)C)C1)C(=O)N1CCC[C@H](N1)C(=O)OCC(C)(C)C2 [Compound A597] | 7.00 to 8.00 |
| CCn1c(-c2cccnc2[C@H](C)OC)c2c3cc(ccc31)-c1cc(O)cc(c1)C[C@H](NC(=O)[C@H](C(C)C)N(C)C(=O)[C@H]1CCCCNC1)C(=O)N1CCC[C@H](N1)C(=O)OCC(C)(C)C2 [Compound A242] | 7.00 to 8.00 |
| CCn1c(-c2cc(N3CCN(C)CC3)cnc2[C@H](C)OC)c2c3cc(ccc31)-c1csc(n1)C[C@H](NC(=O)[C@H](C(C)C)N(C)C(=O)C1OCC[C@@H]1c1ccccc1)C(=O)N1CCC[C@H](N1)C(=O)OCC(C)(C)C2 (stereo partly shown) [Compound A583] | > 8.00 |
| CCn1c(-c2cccnc2[C@H](C)OC)c2c3cc(ccc31)-c1cc(O)cc(c1)C[C@H](NC(=O)[C@H](C(C)C)N(C)C(=O)[C@@H]1OCC[C@H]1c1ccccc1)C(=O)N1CCC[C@H](N1)C(=O)OCC(C)(C)C2 [Compound A584] | 7.00 to 8.00 |

Specify measured pIC50 for CCn1c(-c2cccnc2[C@H](C)OC)c2c3cc(ccc31)-c1cc(O)cc(c1)C[C@H](NC(=O)[C@H](C(C)C)N(C)C(=O)[C@H]1CCN(C(=O)CCc3ccccc3)C1)C(=O)N1CCC[C@H](N1)C(=O)OCC(C)(C)C2 [Compound A201] .
6.00 to 7.00

Specify measured pIC50 for CCn1c(-c2cccnc2[C@H](C)OC)c2c3cc(ccc31)-c1csc(n1)C[C@H](NC(=O)[C@H](C(C)C)N(C)C(=O)N1C[C@H]3CCN(C)[C@H]3C1)C(=O)N1CCC[C@H](N1)C(=O)OCC(C)(C)C2 [Compound A568] .
7.00 to 8.00

Specify measured pIC50 for CCn1c(-c2cccnc2[C@H](C)OC)c2c3cc(ccc31)-c1cc(O)cc(c1)C[C@H](NC(=O)[C@H](C(C)C)N(C)C(=O)C1Cc3nccn3C1)C(=O)N1CCC[C@H](N1)C(=O)OCC(C)(C)C2 (stereo partly shown) [Compound A249] .
7.00 to 8.00

Specify measured pIC50 for CCn1c(-c2cnccc2COC)c2c3cc(ccc31)-c1cc(O)cc(c1)C[C@H](NC(=O)[C@H](C(C)C)N(C)C(=O)[C@H]1CCN(C[C@@H](C)O)C1)C(=O)N1CCC[C@H](N1)C(=O)OCC(C)(C)C2 [Compound A31] .
< 5.00

Specify measured pIC50 for CCn1c(-c2cccnc2[C@H](C)OC)c2c3cc(ccc31)-c1csc(n1)C[C@H](NC(=O)[C@H](C(C)C)N(C)C(=O)N1CC[C@@H](O)C1)C(=O)N1CCC[C@H](N1)C(=O)OCC(C)(C)C2 [Compound A376] .
7.00 to 8.00
